Sourced from patent US5585373A

# Tested on: KB cells
# test-name: In Vitro KB Cell Cytotoxicity Assay
# Format: cell-based
# applied-conditions: Homo sapiens, 72 h, crystal violet staining, 3 days incubation
Task for the reader: assign each of the following compounds its reported IC50.
One number for each entry, in µg/mL.

>  <compound>
O=C(OC(c1ccccc1)c1ccccc1)[C@H]([C@@H](OCc1ccccc1)[C@H]1CN2C(=O)C[C@H]2O1)N(Cc1ccccc1)C(=O)OCc1ccccc1 [Compound 43]

>  <IC50 (µg/mL)>
3

$$$$

Would you be so kind as to report IC50 for each listed record?
1. N[C@@H](C(=O)O)[C@@H](OC(=O)c1ccccc1)[C@H]1CN2C(=O)C[C@@H]2O1 [Compound 12b]
2. O=C(OCc1ccccc1)[C@H](O)[C@H](O)[C@H]1CN2C(=O)C[C@@H]2O1 [Compound 7]
3. O=C(OC(c1ccccc1)c1ccccc1)[C@H]([C@@H](OCc1ccccc1)[C@H]1CN2C(=O)C[C@@H]2O1)N(Cc1ccccc1)C(=O)OCc1ccccc1 [Compound 42]
4. O=C(OCc1ccccc1)[C@@H](O)[C@@H](O)[C@H]1CN2C(=O)C[C@@H]2O1 [Compound 6]
5. O=C(OCc1ccccc1)[C@H](O)[C@@H](O)[C@H]1CN2C(=O)C[C@@H]2O1 [Compound 4]
6. O=C(OCc1ccccc1)[C@@H](O)[C@H](O)[C@H]1CN2C(=O)C[C@@H]2O1 [Compound 5]
7. CC(=O)O[C@@H]([C@H]1CN2C(=O)C[C@@H]2O1)[C@@H](N)C(=O)O [Compound 12a]

1. 0.3
2. 0.09
3. 3
4. 0.09
5. 0.07
6. 0.3
7. 3

Would you be so kind as to report IC50 for each listed record?
1. COc1ccc(CO[C@H]([C@H](N)C(=O)O)[C@H]2CN3C(=O)C[C@@H]3O2)cc1 [Compound 32d]
2. CO[C@H]([C@H](N)C(=O)O)[C@H]1CN2C(=O)C[C@@H]2O1 [Compound 32a]
3. N[C@H](C(=O)O)[C@@H](OCc1ccccc1)[C@H]1CN2C(=O)C[C@@H]2O1 [Compound 32b]
4. N[C@H](C(=O)O)[C@@H](OCc1ccc(F)cc1)[C@H]1CN2C(=O)C[C@@H]2O1 [Compound 32c]
5. N[C@H](C(=O)O)[C@@H](OCC1CC1)[C@H]1CN2C(=O)C[C@@H]2O1 [Compound 32e]

[0.09, 0.03, 0.06, 0.04, 0.4]
